Target: Protein cereblon/Zinc finger protein Aiolos (Homo sapiens, UniProt Q96SW2+Q9UKT9)
Sequence (Q96SW2 whole entry, looked up): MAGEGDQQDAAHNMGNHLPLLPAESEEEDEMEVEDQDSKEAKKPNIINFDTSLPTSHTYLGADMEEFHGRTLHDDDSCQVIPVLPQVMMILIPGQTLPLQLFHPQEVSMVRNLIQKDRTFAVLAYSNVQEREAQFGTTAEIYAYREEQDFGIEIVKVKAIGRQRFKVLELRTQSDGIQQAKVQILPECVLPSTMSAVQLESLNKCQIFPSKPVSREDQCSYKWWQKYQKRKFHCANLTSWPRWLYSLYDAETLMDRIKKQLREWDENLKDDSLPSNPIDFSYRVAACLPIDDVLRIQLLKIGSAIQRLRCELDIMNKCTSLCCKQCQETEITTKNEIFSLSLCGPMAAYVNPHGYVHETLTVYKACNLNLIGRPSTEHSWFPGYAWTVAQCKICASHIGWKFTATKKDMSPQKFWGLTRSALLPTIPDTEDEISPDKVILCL
Sequence (Q9UKT9 whole entry, looked up): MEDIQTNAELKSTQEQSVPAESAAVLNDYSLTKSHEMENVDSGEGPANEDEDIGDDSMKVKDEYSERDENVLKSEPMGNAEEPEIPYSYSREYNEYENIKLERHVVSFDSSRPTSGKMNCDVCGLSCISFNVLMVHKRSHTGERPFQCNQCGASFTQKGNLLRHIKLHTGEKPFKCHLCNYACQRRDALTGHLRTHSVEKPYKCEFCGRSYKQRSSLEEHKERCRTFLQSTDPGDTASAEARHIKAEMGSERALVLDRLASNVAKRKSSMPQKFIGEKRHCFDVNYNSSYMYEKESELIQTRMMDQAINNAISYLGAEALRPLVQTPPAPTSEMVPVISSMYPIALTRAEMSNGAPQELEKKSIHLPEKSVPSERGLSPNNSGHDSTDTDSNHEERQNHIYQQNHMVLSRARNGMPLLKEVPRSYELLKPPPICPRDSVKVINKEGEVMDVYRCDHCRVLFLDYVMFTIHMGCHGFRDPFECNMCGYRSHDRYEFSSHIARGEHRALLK
Assay: PROTAC activity at CRBN/IKZF3 in human T cell assessed as maximal degradation of IKZF3 protein incubated for 24 hrs by flow cytometry relative to control
Assay type: cell-based
READOUT_LABEL: Emax (%)

INSERT INTO results (compound, display_unit, meas_value) VALUES
  ('CN1CCN([C@@H]2CCCN(c3cnc(C(N)=O)c(Nc4ccc(C5CN(C6CCN(c7ccc8c(c7)C(=O)N(C7CCC(=O)NC7=O)C8=O)CC6)C5)cc4)n3)C2)C1=O (some centres undefined)', '%', 79),
  ('CN1CCN([C@@H]2CCCN(c3cnc(C(N)=O)c(Nc4ccc(C5CCN(C[C@H]6CC[C@@H](Nc7cccc8c7C(=O)N(C7CCC(=O)NC7=O)C8=O)CC6)CC5)cc4)n3)C2)C1=O (some centres undefined)', '%', 31),
  ('CN1CCN([C@@H]2CCCN(c3cnc(C(N)=O)c(Nc4ccc(C5CCN(CC6CCN(c7ccc8c(c7)C(=O)N(C7CCC(=O)NC7=O)C8=O)CC6)CC5)cc4)n3)C2)C1=O (some centres undefined)', '%', 74),
  ('CN1CCN([C@@H]2CCCN(c3cnc(C(N)=O)c(Nc4ccc(C5CCN(C(=O)CCOCCNc6cccc7c6C(=O)N(C6CCC(=O)NC6=O)C7=O)CC5)cc4)n3)C2)C1=O (some centres undefined)', '%', 99);

###

Test: Cmax in cynomolgus monkey at 10 mg/kg,po administration for 14 days
Format: ADME, organism-based, Macaca fascicularis
Parameters: dose 10 mg/kg, time 14 day, route po
Conditions: in vivo
READOUT_LABEL: Cmax

INSERT INTO measurements (compound, meas_value) VALUES
  ('NC(=O)c1ncc(N2CCCCC2)nc1Nc1ccc(C2CCN(C[C@H]3CCN(c4ccc5c(c4)C(=O)N(C4CCC(=O)NC4=O)C5=O)C3)CC2)cc1 (stereo partly specified) [ZELEBRUDOMIDE]', '25.4 ng/mL');

###

Biological target: Protein cereblon/Tyrosine-protein kinase BTK (Homo sapiens, UniProt Q06187+Q96SW2)
Sequence (Q06187 2-659 limits assumed, one chain of several): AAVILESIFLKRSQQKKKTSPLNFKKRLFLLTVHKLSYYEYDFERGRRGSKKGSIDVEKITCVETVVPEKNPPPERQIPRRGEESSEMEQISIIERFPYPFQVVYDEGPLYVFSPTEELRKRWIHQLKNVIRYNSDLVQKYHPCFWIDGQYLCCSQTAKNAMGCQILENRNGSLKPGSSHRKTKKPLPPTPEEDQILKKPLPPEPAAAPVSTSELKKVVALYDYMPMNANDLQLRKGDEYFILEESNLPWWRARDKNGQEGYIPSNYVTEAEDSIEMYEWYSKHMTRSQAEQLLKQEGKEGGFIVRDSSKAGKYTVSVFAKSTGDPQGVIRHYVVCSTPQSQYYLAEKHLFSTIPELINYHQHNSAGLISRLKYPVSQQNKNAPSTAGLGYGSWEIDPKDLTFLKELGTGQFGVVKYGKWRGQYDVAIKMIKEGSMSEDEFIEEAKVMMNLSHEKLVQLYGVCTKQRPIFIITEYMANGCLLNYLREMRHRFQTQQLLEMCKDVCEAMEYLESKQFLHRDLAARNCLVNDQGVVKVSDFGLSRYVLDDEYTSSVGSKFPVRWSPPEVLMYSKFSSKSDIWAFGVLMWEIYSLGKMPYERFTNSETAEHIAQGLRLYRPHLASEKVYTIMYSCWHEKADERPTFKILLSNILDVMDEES
Experiment: PROTAC activity at CRBN/BTK in human Ramos cells assessed as maximal degradation of BTK protein incubated for 4 hrs by HTRF assay relative to control
Type: cell-based
// values below are reported Emax
READOUT_LABEL: Emax (%)

INSERT INTO assay_data (compound, readout_label, readout_qualifier, meas_value) VALUES
  ('CN1CCN([C@@H]2CCCN(c3cnc(C(N)=O)c(Nc4ccc(C5CCN(CC6CN(c7ccc8c(c7)C(=O)N(C7CCC(=O)NC7=O)C8=O)C6)CC5)cc4)n3)C2)C1=O (some centres not stated)', 'Emax', '=', 97),
  ('Cn1cc(-c2ccnc(-n3ncc4cc(C(C)(C)C)cc(F)c4c3=O)c2CO)cc(Nc2cc3n(n2)CCN(C(=O)CCOCCCc2cccc4c2CN(C2CCC(=O)NC2=O)C4=O)C3)c1=O (configuration not stated)', 'Emax', '=', 79),
  ('CN1CCN([C@@H]2CCCN(c3cnc(C(N)=O)c(Nc4ccc(C5CCN(C(=O)CCOCCNc6cccc7c6C(=O)N(C6CCC(=O)NC6=O)C7=O)CC5)cc4)n3)C2)C1=O (some centres not stated)', 'Emax', '=', 80),
  ('Cc1cccc(C[C@@H](NC(=O)c2ccc3[nH]ncc3c2)C(=O)N2Cc3[nH]c4ccccc4c3C[C@@H]2C(=O)NCCOCCOCCOCCOCCOCCOCCOCCNc2cccc3c2C(=O)N(C2CCC(=O)NC2=O)C3=O)c1 (some centres not stated)', 'Emax', '=', 51),
  ('CN1CCN([C@@H]2CCCN(c3cnc(C(N)=O)c(Nc4ccc(C5CCN(CCCNc6cccc7c6C(=O)N(C6CCC(=O)NC6=O)C7=O)CC5)cc4)n3)C2)C1=O (some centres not stated)', 'Emax', '=', 95),
  ('CN1CCN([C@@H]2CCCN(c3cnc(C(N)=O)c(Nc4ccc(C5CCN(C6CN(c7ccc8c(c7)C(=O)N(C7CCC(=O)NC7=O)C8=O)C6)CC5)cc4)n3)C2)C1=O (some centres not stated)', 'Emax', '=', 91),
  ('CN1CCN([C@@H]2CCCN(c3cnc(C(N)=O)c(Nc4ccc5c(c4)CCN(CC4CCN(c6ccc7c(c6)C(=O)N(C6CCC(=O)NC6=O)C7=O)CC4)C5)n3)C2)C1=O (some centres not stated)', 'Emax', '=', 95),
  ('Nc1ncnc2c1c(-c1ccc(Oc3ccccc3)cc1)nn2C1CCN(C(=O)CCOCCOCCOCCOCCOCCNc2cccc3c2C(=O)N(C2CCC(=O)NC2=O)C3=O)CC1 (configuration not stated)', 'Emax', '=', 88),
  ('Cc1[nH]c2c(C(N)=O)ccc(N3CCC[C@H](NC(=O)CCCCCCc4cccc5c4CN(C4CCC(=O)NC4=O)C5=O)C3)c2c1C (some centres not stated)', 'Emax', '<', 20),
  ('CN1CCN([C@@H]2CCCN(c3cnc(C(N)=O)c(Nc4ccc(N5CCC6(CC5)CCN(c5ccc7c(c5)C(=O)N(C5CCC(=O)NC5=O)C7=O)CC6)cc4)n3)C2)C1=O (some centres not stated)', 'Emax', '=', 96),
  ('CN1CCN([C@@H]2CCCN(c3cnc(C(N)=O)c(Nc4ccc(C5CCN(C[C@H]6CC[C@@H](Nc7cccc8c7C(=O)N(C7CCC(=O)NC7=O)C8=O)CC6)CC5)cc4)n3)C2)C1=O (some centres not stated)', 'Emax', '=', 88),
  ('CN1CCN([C@@H]2CCCN(c3cnc(C(N)=O)c(Nc4ccc(N5CC6(C5)CN(c5ccc7c(c5)C(=O)N(C5CCC(=O)NC5=O)C7=O)C6)cc4)n3)C2)C1=O (some centres not stated)', 'Emax', '=', 94);

###

Assay: AUC in dog at 10 mg/kg,po
Type: ADME, organism-based, Canis lupus familiaris
Set-up: dose 10 mg/kg, route po
Settings: in vivo
READOUT_LABEL: AUC (µM·h)

INSERT INTO measurements (compound, display_unit, meas_value) VALUES
  ('NC(=O)c1ncc(N2CCCCC2)nc1Nc1ccc(C2CCN(C[C@H]3CCN(c4ccc5c(c4)C(=O)N(C4CCC(=O)NC4=O)C5=O)C3)CC2)cc1 (stereo partly specified) [ZELEBRUDOMIDE]', 'µM·h', 0.13);

###

Assay: Ratio of drug concentration in dog blood to plasma
Type: ADME, cell-free, Canis lupus familiaris
Settings: whole blood
READOUT_LABEL: blood plasma ratio

INSERT INTO assay_data (molecule, meas_value) VALUES
  ('CN1CCN([C@@H]2CCCN(c3cnc(C(N)=O)c(Nc4ccc(C5CCN(C[C@H]6CCN(c7ccc8c(c7)C(=O)N(C7CCC(=O)NC7=O)C8=O)C6)CC5)cc4)n3)C2)C1=O (stereo partly specified)', 6);

###

Biological target: Protein cereblon/Tyrosine-protein kinase BTK (Homo sapiens, UniProt Q06187+Q96SW2)
Assay: PROTAC activity at CRBN/BTK in human Ramos cells assessed as maximal degradation of BTK protein incubated for 4 hrs by HTRF assay relative to control
Type: cell-based
READOUT_LABEL: Emax (%)

INSERT INTO measurements (molecule, subject_of_test, display_unit, meas_value) VALUES
  ('CN1CCN([C@@H]2CCCN(c3cnc(C(N)=O)c(Nc4ccc(C5CCN(C[C@H]6CC[C@H](Nc7cccc8c7C(=O)N(C7CCC(=O)NC7=O)C8=O)CC6)CC5)cc4)n3)C2)C1=O (stereo partly drawn)', 'Protein cereblon/Tyrosine-protein kinase BTK (Homo sapiens, UniProt Q06187+Q96SW2)', '%', 90),
  ('CN1CCN([C@@H]2CCCN(c3cnc(C(N)=O)c(Nc4ccc(C5CN(C6CCN(c7ccc8c(c7)C(=O)N(C7CCC(=O)NC7=O)C8=O)CC6)C5)cc4)n3)C2)C1=O (stereo partly drawn)', 'Protein cereblon/Tyrosine-protein kinase BTK (Homo sapiens, UniProt Q06187+Q96SW2)', '%', 95),
  ('CN1CCN([C@@H]2CCCN(c3cnc(C(N)=O)c(Nc4ccc(C5CCN(C[C@H]6CCN(c7ccc8c(c7)C(=O)N(C7CCC(=O)NC7=O)C8=O)C6)CC5)cc4)n3)C2)C1=O (stereo partly drawn)', 'Protein cereblon/Tyrosine-protein kinase BTK (Homo sapiens, UniProt Q06187+Q96SW2)', '%', 97);

###

Target: Protein cereblon/Tyrosine-protein kinase BTK (Homo sapiens, UniProt Q06187+Q96SW2)
Assay: PROTAC activity at CRBN/BTK in human TMD8 cells assessed as maximal degradation of BTK protein incubated for 4 hrs by HTRF assay relative to control
Format: cell-based
Entries and their Emax values follow.
READOUT_LABEL: Emax (%)

INSERT INTO measurements (molecule, readout_label, meas_value) VALUES
  ('CN1CCN([C@@H]2CCCN(c3cnc(C(N)=O)c(Nc4cnn(C5CCN(CC6CCN(c7ccc8c(c7)C(=O)N(C7CCC(=O)NC7=O)C8=O)CC6)CC5)c4)n3)C2)C1=O (stereo partly specified)', 'Emax', 96),
  ('CN1CCN([C@@H]2CCCN(c3cnc(C(N)=O)c(Nc4ccc(C5CCN(C[C@H]6CCN(c7ccc8c(c7)C(=O)N(C7CCC(=O)NC7=O)C8=O)C6)CC5)nc4)n3)C2)C1=O (stereo partly specified)', 'Emax', 96),
  ('CN1CCN([C@@H]2CCCN(c3cnc(C(N)=O)c(Nc4ccc(C5CCN(C[C@H]6CCN(c7ccc8c(c7)CN(C7CCC(=O)NC7=O)C8=O)C6)CC5)cc4)n3)C2)C1=O (stereo partly specified)', 'Emax', 96),
  ('CN1CCN([C@@H]2CCCN(c3cnc(C(N)=O)c(Nc4ccc(C5CCN(C6CN(c7ccc8c(c7)C(=O)N(C7CCC(=O)NC7=O)C8=O)C6)CC5)cc4)n3)C2)C1=O (stereo partly specified)', 'Emax', 96),
  ('CN1CCN([C@@H]2CCCN(c3cnc(C(N)=O)c(Nc4ccc(N5CCC6(CC5)CN(c5cccc7c5C(=O)N(C5CCC(=O)NC5=O)C7=O)C6)cc4)n3)C2)C1=O (stereo partly specified)', 'Emax', 50),
  ('CN1CCN([C@@H]2CCCN(c3cnc(C(N)=O)c(Nc4ccc(N5CCC6(CCN(c7ccc8c(c7)C(=O)N(C7CCC(=O)NC7=O)C8=O)CC6)CC5)nc4)n3)C2)C1=O (stereo partly specified)', 'Emax', 94),
  ('CN1CCN([C@@H]2CCCN(c3cnc(C(N)=O)c(Nc4ccc(C5(C)CCN(C[C@H]6CCN(c7ccc8c(c7)C(=O)N(C7CCC(=O)NC7=O)C8=O)C6)CC5)cc4)n3)C2)C1=O (stereo partly specified)', 'Emax', 96),
  ('NC(=O)c1ncc(-c2nccs2)nc1Nc1ccc(C2CCN(C[C@H]3CCN(c4ccc5c(c4)C(=O)N(C4CCC(=O)NC4=O)C5=O)C3)CC2)cc1 (stereo partly specified)', 'Emax', 95),
  ('CN1CCN([C@@H]2CCCN(c3cnc(C(N)=O)c(Nc4ccc5c(c4)CCN(CC4CCN(c6ccc7c(c6)C(=O)N(C6CCC(=O)NC6=O)C7=O)CC4)C5)n3)C2)C1=O (stereo partly specified)', 'Emax', 96),
  ('CN1CCN([C@@H]2CCCN(c3cnc(C(N)=O)c(Nc4ccc(N5CCC6(CC5)CCN(c5ccc7c(c5)C(=O)N(C5CCC(=O)NC5=O)C7=O)CC6)cc4)n3)C2)C1=O (stereo partly specified)', 'Emax', 96),
  ('CN1CCN([C@@H]2CCCN(c3cnc(C(N)=O)c(Nc4ccc(C5CCN(C[C@H]6CCN(c7ccc8c(c7)C(=O)N(C7CCC(=O)NC7=O)C8=O)C6)CC5)cc4)n3)C2)C1=O (stereo partly specified)', 'Emax', 97);
